Reported values of protein stability index for individual entries
B1: RAB40A (parent)
chain: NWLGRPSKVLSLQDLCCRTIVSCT

variants of: B1; assay: protein stability index of a GFP-peptide fusion (GPS, HEK-293T) (PSI 1-6); higher = more stable; conditions: c terminus: a fixed tail appended;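 also: lentivirally expressed fusions sorted by FACS into six bins by GFP to DsRed ratio, PSI derived from sequencing read proportions per bin multiplied by bin number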
Field format: numeric only.

# annotated cases, reported protein stability index shown
# sequence-record, protein stability index
rows = [
    ("NWLGYPSKVLSLQDLCCRTIVSCT [R5Y]", 2.06),
    ("NWLGRPSKVLSLQDLMCRTIVSCT [C16M]", 1.98),
    ("NWLGRPDKVLSLQDLCCRTIVSCT [S7D]", 2.28),
    ("NSLGRPSKVLSLQDLCCRTIVSCT [W2S]", 2.96),
    ("NTLGRPSKVLSLQDLCCRTIVSCT [W2T]", 3.08),
    ("NWLGRPSFVLSLQDLCCRTIVSCT [K8F]", 2.35),
    ("NWLGRKSKVLSLQDLCCRTIVSCT [P6K]", 2.06),
    ("NWLGRPGKVLSLQDLCCRTIVSCT [S7G]", 2.15),
]

// query Which protein stability index is listed for NWLGRISKVLSLQDLCCRTIVSCT [P6I] ?
// result 2.4

// query Which protein stability index is listed for NWLGRPFKVLSLQDLCCRTIVSCT [S7F] ?
// result 2.28

// query Which protein stability index is listed for NWLGRPSKVLSLQDLCCRTMVSCT [I20M] ?
// result 2.83

// query Which protein stability index is listed for NWLGRPSKVLTLQDLCCRTIVSCT [S11T] ?
// result 2.6

// query Which protein stability index is listed for NWLGRPSKVLSLQDLCCRTIVSCF [T24F] ?
// result 2.63
